Test system: SK-OV-3 ovarian
Test: NCI tumour cell line growth inhibition, 48 h
value_kind: TGI

Request: TGI, test system SK-OV-3 ovarian, entry O=C1CCCC/C1=C\c1ccc([N+](=O)[O-])cc1
30.9 µM

Request: TGI, test system SK-OV-3 ovarian, entry O=C1/C(=C\c2ccc(Br)cc2)CCCc2ccccc21
> 100 µM

Request: TGI, test system SK-OV-3 ovarian, entry Cn1c(=Nc2ccc(Cl)cc2)sc2ccccc21
> 100 µM

Request: TGI, test system SK-OV-3 ovarian, entry CC1(C)CC(=O)c2c(nc3c(ccc4ccccc43)c2-c2ccc(NC(=O)CCC(=O)Nc3ccc(-c4c5c(nc6c4ccc4ccccc46)CC(C)(C)CC5=O)cc3)cc2)C1
> 100 µM

Request: TGI, test system SK-OV-3 ovarian, entry FC(F)(F)c1ccc(-c2nn3ncccc3c2-c2ccnc(Nc3ccc4c(c3)OCCO4)n2)cc1
> 25 µM

Request: TGI, test system SK-OV-3 ovarian, entry CCCC1(CN2c3ccccc3Sc3ccc(Cl)cc32)CCN(CC)C1 (stereo not drawn)
3.45 µM

Request: TGI, test system SK-OV-3 ovarian, entry N#CCCN(CCC#N)c1ccc(/C=C2\N=C(c3ccccc3)N(c3ccc(C(=O)O)cc3)C2=O)cc1
> 100 µM

Request: TGI, test system SK-OV-3 ovarian, entry C/C(=N\NC(=S)N1CCC(N2CCCCC2)CC1)c1ccccn1
11.6 µM

Request: TGI, test system SK-OV-3 ovarian, entry CCOc1cccc2c1N[S@@](=O)S2
> 100 µM

Request: TGI, test system SK-OV-3 ovarian, entry O=C(NN1C(=O)CSC1c1cccc(Cl)c1)C(O)c1ccccc1 (stereo not drawn)
> 100 µM

Request: TGI, test system SK-OV-3 ovarian, entry Cc1cc(CCl)c(C)cc1CCl
23 µM

Request: TGI, test system SK-OV-3 ovarian, entry COc1ccc2oc(S(=O)(=O)N3CC(CCl)c4ccc(N)cc43)cc2c1 (stereo not drawn)
> 100 µM

Request: TGI, test system SK-OV-3 ovarian, entry CCOC(=O)c1ccc(NC(=O)NC2=NCCS2)cc1
7.76 µM

Request: TGI, test system SK-OV-3 ovarian, entry COC(=O)C(=O)C(CC(=O)Nc1ccc(C)cc1)C(=O)OC (stereo not drawn)
> 100 µM

Request: TGI, test system SK-OV-3 ovarian, entry CCOP(=O)(OCC)/C(C#N)=C/c1ccccn1
> 100 µM

Request: TGI, test system SK-OV-3 ovarian, entry C[C@@H](C[C@H]1OC(C)(C)O[C@@H]1C(C)(C)O)[C@H]1CC=C2[C@]3(C)[C@H](O)C[C@H]4C(C)(C)[C@H](O)CC[C@]4(C)[C@H]3CC[C@]21C
20.6 µM

Request: TGI, test system SK-OV-3 ovarian, entry COC1(C2c3ccccc3CCN2C(=O)OC(C)(C)C)C(=O)C(c2ccccc2)=C1N(C)C (stereo not drawn)
> 100 µM

Request: TGI, test system SK-OV-3 ovarian, entry O=C(Cn1cc(Br)c(=O)[nH]c1=O)c1ccc(-c2ccccc2)cc1
> 100 µM

Request: TGI, test system SK-OV-3 ovarian, entry O=C1/C(=C\c2ccco2)Oc2ccccc21
> 100 µM

Request: TGI, test system SK-OV-3 ovarian, entry O=C1c2cccnc2-c2nc(-c3cccnc3)cc3c2c1nc1ccccc13
29.8 µM

Request: TGI, test system SK-OV-3 ovarian, entry COC(=O)c1cc(=O)nc2cc3cccccc3n12
> 100 µM

Request: TGI, test system SK-OV-3 ovarian, entry COc1c2c(nc3ccccc13)-c1cc(C(CC(=O)OC(C)(C)C)C(=O)OC(C)C)c(CO)c(=O)n1C2 (stereo not drawn)
> 100 µM

Request: TGI, test system SK-OV-3 ovarian, entry CC[C@@H](CCCCC1CC[C@H]2CC(=O)C[C@@H]12)OC (stereo partly drawn)
> 100 µM

Request: TGI, test system SK-OV-3 ovarian, entry CCn1cc(/C=C2\Oc3cc(OCC#N)ccc3C2=O)c2cc(OC)ccc21
> 78.5 µM

Request: TGI, test system SK-OV-3 ovarian, entry Clc1ccc(-c2cc(-c3cc4cc(Br)ccc4nc3Cl)on2)cc1
> 50 µM

Request: TGI, test system SK-OV-3 ovarian, entry c1ccc(-c2nc3n(c2-c2ccc4c(c2)OCO4)CCC3)nc1
14.7 µM

Request: TGI, test system SK-OV-3 ovarian, entry Cc1cccc2[nH]c3c(c(O)cc4[nH]c5cccc(C)c5c(=O)c43)c(=O)c12
> 10 µM

Request: TGI, test system SK-OV-3 ovarian, entry Cc1ccc(Cl)cc1N=NC(=O)NNc1cc(Cl)ccc1C
49.5 µM

Request: TGI, test system SK-OV-3 ovarian, entry COc1ccc(-c2oc3cc(OC)c(OC)c(O)c3c(=O)c2OC)cc1
> 100 µM

Request: TGI, test system SK-OV-3 ovarian, entry O=c1cc(-c2ccccc2)[nH]c2cc(F)cc(F)c12
> 100 µM

Request: TGI, test system SK-OV-3 ovarian, entry Nc1ccc(-c2nc3ccc(F)cc3s2)cc1Cl
> 100 µM

Request: TGI, test system SK-OV-3 ovarian, entry COc1cc(OCc2cccc(-c3ccccc3)c2C)cc(OC)c1CN1CCCCC1C(=O)NCCOCCOCCN (stereo not drawn)
24 µM

Request: TGI, test system SK-OV-3 ovarian, entry CC(=O)c1ccc2c(c1)N(CCCN1CCN(CCO)CC1)c1ccccc1S2
10.1 µM

Request: TGI, test system SK-OV-3 ovarian, entry NC(=O)CSc1c2cc(O)ccc2nc2ccc(O)cc12
> 10 µM

Request: TGI, test system SK-OV-3 ovarian, entry O=c1[nH]c(SCc2cccc([N+](=O)[O-])c2)nc2nc[nH]c12
> 100 µM

Request: TGI, test system SK-OV-3 ovarian, entry CC1(C)CO[P@@](=S)(c2ccccn2)O[C@@H]1c1ccccc1
> 100 µM

Request: TGI, test system SK-OV-3 ovarian, entry CCOc1ccc(N=C(NC(=O)c2ccccc2)SC)cc1
> 100 µM

Request: TGI, test system SK-OV-3 ovarian, entry O=C(Nc1cccc(F)c1)c1cc2ccc(O)cc2oc1=Nc1cccc(F)c1
> 100 µM

Request: TGI, test system SK-OV-3 ovarian, entry CCOC(=O)C1Cc2ccc3c4c(ccc(c24)C1)CC(C(=O)OCC)C3
> 100 µM

Request: TGI, test system SK-OV-3 ovarian, entry OC1=CN=COc2ccccc21
> 100 µM

Request: TGI, test system SK-OV-3 ovarian, entry C=C1C(=O)O[C@H]2[C@H]1CC/C(Cn1cc(-c3ccc(N)cc3)nn1)=C\CC[C@@]1(C)O[C@@H]21
34.4 µM

Request: TGI, test system SK-OV-3 ovarian, entry c1cc2c3c(c1)c1cc4c(cc1c[n+]3CC2)OCO4
97.2 µM

Request: TGI, test system SK-OV-3 ovarian, entry C/C(=C(/c1ccccc1)c1ccc(OCC(O)CNCCN2CCOCC2)cc1)c1ccccc1 (stereo not drawn)
24.8 µM

----------
System: PC-3 prostate
Test: NCI tumour cell line growth inhibition, 48 h
Decision: TGI >= 30 µM yields True, all other cases yield False.

Answer whether TGI of O=C(Nc1cccc2[nH]c(C(F)(F)F)nc12)c1cc(Cl)ccc1Cl is greater than or equal to 30 µM.
True

Answer whether TGI of N#[N+]c1c([O-])c2ccccc2c2ccccc12 is greater than or equal to 30 µM.
True

Answer whether TGI of COc1cc(F)ccc1-c1cc(Nc2cc(CS(C)(=N)=O)ccn2)ncc1F (stereo not drawn) is greater than or equal to 30 µM.
True

Answer whether TGI of CCCCCCCCCc1ccc(OCCOCCOCCOCCOCCOCCOCCOCCOCCO)cc1 is greater than or equal to 30 µM.
False

Answer whether TGI of CC(O)c1cc2c(s1)C(=O)c1c(C(C)O)csc1C2=O (stereo not drawn) is greater than or equal to 30 µM.
False

Answer whether TGI of COc1ccc(-c2c(-c3ccccc3)c(C)c3ccccn23)cc1 is greater than or equal to 30 µM.
True

Answer whether TGI of CC12CC(=O)Nc3ccccc3N1C(c1ccccc1)=NO2 (stereo not drawn) is greater than or equal to 30 µM.
True

Answer whether TGI of COc1ccc2c(c1)C(=O)/C(=C/c1cccc(OCC(=O)Nc3nc(C)c(C)s3)c1)O2 is greater than or equal to 30 µM.
False

Answer whether TGI of CCOc1cc(/C=C/C(=O)C(C(=O)/C=C/c2ccc(OC(=O)CNc3nc4ccccc4[nH]3)c(OCC)c2)C(=O)CNc2nc3ccccc3[nH]2)ccc1OC(=O)CNc1nc2ccccc2[nH]1 is greater than or equal to 30 µM.
False

Answer whether TGI of O=C(CC1(O)C(=O)Nc2ccc(F)cc21)c1ccc(C(=O)NCC2CCC3(CC2)OOC2(CCCCC2)OO3)cc1 (stereo not drawn) is greater than or equal to 30 µM.
False

Answer whether TGI of COc1ccc(-c2cnnn2-c2nonc2-n2cccc2)cc1OC is greater than or equal to 30 µM.
True

Answer whether TGI of CO/N=C\c1ccc2c(c1)Sc1ccccc1O2 is greater than or equal to 30 µM.
True

Answer whether TGI of NC(=O)c1cccnc1 is greater than or equal to 30 µM.
True

Answer whether TGI of CC(=O)c1ccc2c(c1)N(CCCN1CCN(CCO)CC1)c1ccccc1S2 is greater than or equal to 30 µM.
False

Answer whether TGI of CCC(=O)N/S(=N/S(=O)(=O)c1ccccc1)C(Cl)(Cl)Cl (stereo not drawn) is greater than or equal to 30 µM.
True

Answer whether TGI of COc1c2c(nc3ccccc13)-c1cc(C(CC(=O)OC(C)(C)C)C(=O)OC(C)C)c(CO)c(=O)n1C2 (stereo not drawn) is greater than or equal to 30 µM.
True

Answer whether TGI of CC(=O)O[C@H]1CC[C@@]2(C)C(=CC[C@@H]3[C@@H]2CC[C@]2(C)c4c(n[nH]c4C)C[C@@H]32)C1 is greater than or equal to 30 µM.
True

Answer whether TGI of c1ccc2c(c1)c1ccccc1n2Cn1c2ccccc2c2ccccc21 is greater than or equal to 30 µM.
True

Answer whether TGI of N=c1oc2ccccc2cc1-c1nc2ccccc2[nH]1 is greater than or equal to 30 µM.
True

Answer whether TGI of COc1cccc2c1C(=O)c1c(O)c3c(c(O)c1C2=O)C[C@@](O)(C(=O)COC(=O)c1ccccc1)C[C@@H]3OC1CC(N)C(O)C(C)O1 (stereo partly drawn) is greater than or equal to 30 µM.
False

Answer whether TGI of Cc1cc(NCc2cc(Nc3ccnc4cc(Cl)ccc34)ccc2F)nc(N2CCOCC2)n1 is greater than or equal to 30 µM.
False

Answer whether TGI of COc1ccc2cc(CNCCCCCCCCNCc3ccc4cc(OC)ccc4c3)ccc2c1 is greater than or equal to 30 µM.
False

Answer whether TGI of Cc1ccc(O)c(C2=CC3=NNC(=O)C3C(c3cccc(Cl)c3)C2)c1 (stereo not drawn) is greater than or equal to 30 µM.
True

Answer whether TGI of CC(/C=C/C(O)=C1/C(=O)CNC1=O)=C\[C@@H](C)[C@H]1O[C@@]2(C)O[C@H](C(=O)[C@@H]3O[C@@]32C)[C@@H]1C is greater than or equal to 30 µM.
True

Answer whether TGI of O=C1/C(=C\c2ccco2)Oc2ccccc21 is greater than or equal to 30 µM.
True

Answer whether TGI of O=[N+]([O-])C(/C(Cl)=C(\Cl)Br)=C(/Cl)SCc1ccccc1 is greater than or equal to 30 µM.
False

Answer whether TGI of O=C1c2cccnc2-c2nc(-c3cccnc3)cc3c2c1nc1ccccc13 is greater than or equal to 30 µM.
False

Answer whether TGI of COc1ccc(-c2oc3cc(OC)c(OC)c(O)c3c(=O)c2OC)cc1 is greater than or equal to 30 µM.
True

Answer whether TGI of CC(=O)/C=C/c1ccc(Nc2c3ccccc3nc3occ(Cl)c23)cc1 is greater than or equal to 30 µM.
False

Answer whether TGI of O=C(N/N=C\c1cccc2ccccc12)Nc1ccccc1 is greater than or equal to 30 µM.
True

Answer whether TGI of COc1cc(C2c3cc4c(cc3OC(NNS(=O)(=O)c3ccc(C)cc3)C2C)OCO4)cc(OC)c1OC (stereo not drawn) is greater than or equal to 30 µM.
True

Answer whether TGI of COc1cc(C(=O)Oc2c(C(C)=O)sc3c2c(=O)n(-c2ccccc2)c(=S)n3-c2ccccc2)cc(OC)c1OC is greater than or equal to 30 µM.
True

Answer whether TGI of CC(C)(C)C(=O)Oc1ccc(/C=C/C(=O)c2ccc(OC(=O)C(C)(C)C)cc2)cc1 is greater than or equal to 30 µM.
True

Answer whether TGI of N#CC1=C(N)N(/N=C/c2ccccc2)C(c2ccccc2)C1(C#N)C#N (stereo not drawn) is greater than or equal to 30 µM.
True

Answer whether TGI of COc1cc(/C=N/N=C(\N)NO)cc(OC)c1OC is greater than or equal to 30 µM.
True

Answer whether TGI of O=C(c1ccc2ccccc2c1)c1nc2cc(F)ccc2[n+]([O-])c1C(F)(F)F is greater than or equal to 30 µM.
True
